Tested on: pigweed
Assay: Test B pre/postemergence pigweed
Assay type: in vivo, Amaranthus retroflexus
Details: Preemergence, Rate 250 g/ha; scale 0 to 10, 0 is no effect, 10 is complete control
observation type: Redroot pigweed plant response rating

compound	data value
CC(C)N(C(=O)n1oc(=O)n(CC#N)c1=O)c1ccc(Cl)cc1 [Compound 476]	2
CC(C)N(C(=O)n1oc(=O)n(C(C)CCl)c1=O)c1ccc(Cl)cc1 (centres unmarked) [Compound 456]	3
Cc1nc(C)c(C(C)n2c(=O)on(C(=O)N(c3ccc(F)cc3F)C(C)C)c2=O)s1 (centres unmarked) [Compound 443]	0
CC(C)N(C(=O)n1oc(=O)n(CC2=NOCCC2)c1=O)c1ccccc1 [Compound 430]	2
CC(C)N(C(=O)n1oc(=O)n(CCl)c1=O)c1ccc(Cl)cc1 [Compound 422]	0
CC(C)N(C(=O)n1oc(=O)n(CCCl)c1=O)c1ccc(F)cc1 [Compound 148]	9
CCOC(=O)Cn1c(=O)on(C(=O)N(c2ccc(F)cc2)C(C)C)c1=O [Compound 128]	0
Cc1ccccc1-n1c(=O)on(C(=O)N(c2ccc(-c3ccccc3)cc2)C(C)C)c1=O [Compound 187]	0

---

System: rape
Assay: Test B pre/postemergence rape
Type: in vivo, Brassica napus
Conditions: Postemergence, Rate 250 g/ha; scale 0 to 10, 0 is no effect, 10 is complete control
Description: […] At the same time, these crop and weed species were also treated with postemergence applications of test chemicals formulated in the same manner. […] Treated plants and controls were maintained in a greenhouse for twelve to sixteen days, after which all species were compared to controls and visually evaluated. […]
# reported Plant response rating, Rape; entries follow

molecule	measured on	Plant response rating, Rape
CC(C)Cn1c(=O)on(C(=O)N(c2ccc(F)cc2F)C(C)C)c1=O	rape	0
CC(C)N(C(=O)n1oc(=O)n(CCl)c1=O)c1ccc(Cl)cc1	rape	0
CC(C)N(C(=O)n1oc(=O)n(C(C)Cl)c1=O)c1ccc(F)cc1 (centres unmarked)	rape	3
CSCCn1c(=O)on(C(=O)N(c2ccccc2)C(C)C)c1=O	rape	0
CC(C)N(C(=O)n1oc(=O)n(C(C)CCl)c1=O)c1ccccc1 (centres unmarked)	rape	7

---

# reported Plant response rating, Blackgrass; entries follow
System: blackgrass
Test: Test B pre/postemergence blackgrass
Assay type: in vivo, Alopecurus myosuroides
Settings: Preemergence, Rate 250 g/ha; scale 0 to 10 (0 no effect, 10 complete control)

compound	Plant response rating, Blackgrass
CCCCCn1c(=O)on(C(=O)N(c2ccc(F)cc2F)C(C)C)c1=O [Compound 636]	4
CC(C)N(C(=O)n1oc(=O)n(C(C)C(=O)N2CCOCC2)c1=O)c1ccc(Cl)cc1 (centres unmarked) [Compound 703]	6
CCOC(=O)CC(C(=O)OCC)n1c(=O)on(C(=O)N(c2ccccc2)C(C)C)c1=O (centres unmarked) [Compound 614]	3
CC[C@@H](C)n1c(=O)on(C(=O)N(c2ccc(F)cc2F)C(C)C)c1=O [Compound 667]	8
CC(C)N(C(=O)n1oc(=O)n(CCCC#N)c1=O)c1ccccc1 [Compound 674]	9

---

System: crabgrass
Test: Test B pre/postemergence crabgrass
Assay type: in vivo, Digitaria sanguinalis
Conditions: Preemergence, Rate 62 g/ha; scale of 0 to 10 where 0 is no effect and 10 is complete control
observation type: Crabgrass plant response rating

compound	data value
CC(C)N(C(=O)n1oc(=O)n(CCCC#N)c1=O)c1ccccc1 [Compound 674]	8
Cc1ccccc1-n1c(=O)on(C(=O)N(c2ccccc2F)C(C)C)c1=O [Compound 204]	6
Cc1ccccc1-n1c(=O)on(C(=O)N(c2ccncc2)C(C)C)c1=O [Compound 301]	0
CC(C)N(C(=O)n1oc(=O)n(CCC2CCCCC2)c1=O)c1ccc(F)cc1 [Compound 257]	0
CC(C)N(C(=O)n1oc(=O)n([C@H](C)c2ccccc2)c1=O)c1ccc(Cl)cc1 [Compound 178]	0
CCCCCn1c(=O)on(C(=O)N(c2ccc(F)cc2F)C(C)C)c1=O [Compound 636]	8
CCC(=O)Cn1c(=O)on(C(=O)N(c2ccc(F)cc2)C(C)C)c1=O [Compound 252]	0
CCn1ncc(Cn2c(=O)on(C(=O)N(c3ccc(Cl)cc3)C(C)C)c2=O)c1Cl [Compound 684]	3

---

# reported Crabgrass plant response rating; entries follow
Tested on: crabgrass
Assay: Test B pre/postemergence crabgrass
Type: in vivo, Digitaria sanguinalis
Conditions: Postemergence, Rate 250 g/ha; scale 0 to 10
Procedure: […] At the same time, these crop and weed species were also treated with postemergence applications of test chemicals formulated in the same manner. […] Treated plants and controls were maintained in a greenhouse for twelve to sixteen days, after which all species were compared to controls and visually evaluated. […]

compound	Crabgrass plant response rating
CC(C)N(C(=O)n1oc(=O)n(CC#N)c1=O)c1ccc(F)cc1F [Compound 431]	0
CC(C)N(C(=O)n1oc(=O)n(CCl)c1=O)c1ccc(F)cc1F [Compound 437]	1
CC(C)N(C(=O)n1oc(=O)n(CCC#N)c1=O)c1ccc(F)cc1F [Compound 433]	4
CC(C)N(C(=O)n1oc(=O)n(Cc2cnc(Cl)s2)c1=O)c1ccc(F)cc1 [Compound 482]	1
COC(C)n1c(=O)on(C(=O)N(c2ccc(F)cc2)C(C)C)c1=O (stereo not drawn) [Compound 439]	0
CC(C)N(C(=O)n1oc(=O)n(CC#N)c1=O)c1ccc(Cl)cc1 [Compound 476]	0

---

System: morningglory
Experiment: Test B pre/postemergence morningglory
Type: in vivo, Ipomoea hederacea
Settings: Preemergence, Rate 125 g/ha; scale of 0 to 10 where 0 is no effect and 10 is complete control
observation type: Morningglory plant response rating

compound	measured on	observation type	data value
CC(=O)NCn1c(=O)on(C(=O)N(c2ccc(F)cc2F)C(C)C)c1=O [Compound 622]	morningglory	Morningglory plant response rating	0
C=C(Cn1c(=O)on(C(=O)N(c2ccccc2)C(C)C)c1=O)C(C)(C)C [Compound 648]	morningglory	Morningglory plant response rating	0
CC[C@@H](C)n1c(=O)on(C(=O)N(c2ccc(Cl)cc2)C(C)C)c1=O [Compound 665]	morningglory	Morningglory plant response rating	0
CC[C@@H](C)n1c(=O)on(C(=O)N(c2ccc(F)cc2F)C(C)C)c1=O [Compound 667]	morningglory	Morningglory plant response rating	1
CC(C)N(C(=O)n1oc(=O)n(CNC(=O)c2ccccc2)c1=O)c1ccc(F)cc1F [Compound 619]	morningglory	Morningglory plant response rating	0

---

System: blackgrass
Assay: Test B pre/postemergence blackgrass
Assay type: in vivo, Alopecurus myosuroides
Conditions: Rate 250 g/ha, Postemergence; scale of 0 to 10 where 0 is no effect and 10 is complete control
observation type: Plant response rating, Blackgrass

compound	measured on	observation type	data value
CCC(CC)n1c(=O)on(C(=O)N(c2ccc(F)cc2F)C(C)C)c1=O [Compound 353]	blackgrass	Plant response rating, Blackgrass	4
CC(C)N(C(=O)n1oc(=O)n(CC2CCCC2)c1=O)c1ccc(F)cc1 [Compound 322]	blackgrass	Plant response rating, Blackgrass	1
Cc1ccccc1-n1c(=O)on(C(=O)N(c2ccc3ccccc3c2)C(C)C)c1=O [Compound 306]	blackgrass	Plant response rating, Blackgrass	0
CC(C)N(C(=O)n1oc(=O)n(C(C)C(=O)c2ccccc2)c1=O)c1ccc(Cl)cc1 (centres unmarked) [Compound 541]	blackgrass	Plant response rating, Blackgrass	0
Cc1noc(C)c1Cn1c(=O)on(C(=O)N(c2ccc(Cl)cc2)C(C)C)c1=O [Compound 540]	blackgrass	Plant response rating, Blackgrass	2

---

System: giant foxtail
Assay: Test B pre/postemergence giant foxtail
Format: in vivo, Setaria faberii
Details: Rate 250 g/ha; Postemergence
observation type: Plant response rating (0 to 10; 0 is no effect, 10 is complete control), Giant foxtail

compound	data value
CC(C)N(C(=O)n1oc(=O)n(C2CC2)c1=O)c1ccccc1 [Compound 243]	8
CCC(C)N(C(=O)n1oc(=O)n(-c2ccccc2C)c1=O)c1ccc(F)cc1 (stereo not shown) [Compound 239]	1
CCC(=O)Cn1c(=O)on(C(=O)N(c2ccc(F)cc2)C(C)C)c1=O [Compound 252]	4
COCCOCn1c(=O)on(C(=O)N(c2ccc(F)cc2)C(C)C)c1=O [Compound 220]	8

---

# reported Plant response rating, Wheat; entries follow
System: wheat
Assay: Test B pre/postemergence wheat
Type: in vivo, Triticum aestivum
Settings: Preemergence, Rate 250 g/ha; scale of 0 to 10 where 0 is no effect and 10 is complete control
observation type: Plant response rating, Wheat

smiles str	measured on	data value
CCn1c(=O)on(C(=O)N(c2ccc(F)cc2)C(C)C)c1=O	wheat	7
CC(C)N(C(=O)n1oc(=O)n(-c2cnn(C)c2)c1=O)c1ccc(F)cc1	wheat	1
COc1ccc(N(C(=O)n2oc(=O)n(-c3ccccc3C)c2=O)C(C)C)cc1	wheat	0
Cc1nn(C)c(Cl)c1-n1c(=O)on(C(=O)N(c2ccc(F)cc2)C(C)C)c1=O	wheat	0
